assay text: ATG_BRE_CIS: Attagene CIS-FACTORIAL HepG2 Assay for human Bone Morphogenetic Protein (BMP) Response Element (BRE) (AID 2282933)
assay context: HepG2 BMP response element reporter, Attagene transcription factor profiling; actives raise or lower the signal
Active and inactive are the calls of the source. Rule for the calls: active = hit-call score of the fitted dose curve at least 0.9, where 1 is the maximum; inactive = score below 0.9.
Hello, when you answer, please use one of the following outcomes: yes (active), no (inactive)

O=C1O[C@H]([C@@H](O)CO)C(O)=C1O = no

For this molecule, state the assay outcome: `CCCCCc1ccc(N)cc1`
no

====

assay text: CCTE_Shafer_MEA_acute_per_network_burst_spike_number_std: CCTE's Neural Acute Assay for Standard Deviation of Number of Spikes in a Network Burst, Shafer Lab (AID 2284020);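 note: fitted for decrease in spike-number SD versus DMSO so actives lower it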
Activity calls are given as the source filed them. The calls were made as follows: active = hit-call score of the fitted dose curve at least 0.9, where 1 is the maximum; inactive = score below 0.9.
property: AC50

Some compounds with recorded AC50:
O=C(O)c1ccccc1-n1cc(C(=O)O)c(=O)c2cc(Nc3c(F)cc(F)cc3Cl)c(Cl)cc21 = inactive
CC1=CC(=O)/C(=C(/C)O)C(=O)O1 = inactive
CN1C(=O)CC[C@H]1c1cccnc1 = inactive
OC12N=C(c3ccccc3)SC1Cc1cc(Cl)ccc12 (configuration not stated) = inactive
Clc1ccccc1C(c1ccccc1)(c1ccccc1)n1ccnc1 = 6.71 µM (active)
NCc1cccc(C2CCN(C(=O)c3ccc(C#Cc4ccccc4F)o3)CC2)c1 = 20 µM (active)
CC(C)(c1cc(Br)c(O)c(Br)c1)c1cc(Br)c(O)c(Br)c1 = inactive
Cc1c2ccccc2c(C)c2c1ccc1ccccc12 = inactive
CCCCOC(=O)c1ccc(O)cc1 = inactive
CN(C[C@@H](CC[N+]12CCC(C3CCCCC3)(CC1)CC2)c1ccc(Cl)c(Cl)c1)C(=O)c1cc(C(F)(F)F)cc(C(F)(F)F)c1 = 8.89 µM (active)

Field: AC50. Fill in for each record below.
1. COc1cccc([C@H](O)C2CCN(CCc3ccc(F)cc3)CC2)c1OC
2. CCN(CC)C(=O)c1cc(S(=O)(=O)Cc2ccccc2)c(N2CCC(c3ccccc3)CC2)cc1N(CC)CCN(C)C
3. CO[C@H]1/C=C/O[C@@]2(C)Oc3c(C)c(O)c4c(O)c(c(/C=N/N5CCN(C)CC5)c(O)c4c3C2=O)NC(=O)/C(C)=C\C=C\[C@H](C)[C@H](O)[C@@H](C)[C@@H](O)[C@@H](C)[C@H](OC(C)=O)[C@@H]1C
4. NC(=O)c1nc(-c2cccc(-c3cc(F)ccc3OCC(F)(F)C(F)(F)F)c2)n[nH]1
5. COc1cc(C(=O)NC2CCN(C)CC2)ccc1Nc1ncc2c(n1)N(C1CCCC1)CC(F)(F)C(=O)N2C
6. CC/C(=C(/CC)c1ccc(O)cc1)c1ccc(O)cc1
7. c1ccc2n[nH]nc2c1

["6.88 µM (active)", "inactive", "inactive", "37.4 µM (active)", "15.2 µM (active)", "inactive", "inactive"]
